Catalogue of pKd values
Molecular target: T1, recombinant monomeric human TIGIT-His (human, UniProt Q495A1 22-141)
T1 construct: also called hTIGIT; not shown: His tag
T1 sequence: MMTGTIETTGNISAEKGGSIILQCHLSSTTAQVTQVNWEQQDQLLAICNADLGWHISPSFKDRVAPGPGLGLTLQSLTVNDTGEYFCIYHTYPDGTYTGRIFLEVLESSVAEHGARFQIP
Assay: BLI (ForteBio), IgG on AHQ sensor, 100 nM monomeric antigen, 1:1 model
The scale used: pKd is minus the common logarithm of the concentration in molar units.

Some solved cases for reference:
# lookup: pKd of MAB17-IgG4 (antibody, V domains shown) VH: QVQLVQSGAEVKKPGASVKVSCKASGYTFPAYYIHWVRQAPGQGLEWMGIINPSLGLTSYARKFQGRVTMTRDTSTSTVYMELSSLRSEDTAVYYCARGGRTTWIGALDIWGQGTMVTVSS VL: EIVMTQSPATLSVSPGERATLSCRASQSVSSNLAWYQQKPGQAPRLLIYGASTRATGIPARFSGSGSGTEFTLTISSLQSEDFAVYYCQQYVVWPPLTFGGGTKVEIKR
9.37

Would you kindly repeat that for MAB15-IgG4 (antibody, V domains shown) VH: QVQLVQSGAEVKKPGASVKVSCKASGYTFREYYMHWVRQAPGQGLEWMGIINPSIGLTSYARKFQGRVTMTRDTSTSTVYMELSSLRSEDTAVYYCARGGRTTWIGAFDIWGQGTMVTVSS VL: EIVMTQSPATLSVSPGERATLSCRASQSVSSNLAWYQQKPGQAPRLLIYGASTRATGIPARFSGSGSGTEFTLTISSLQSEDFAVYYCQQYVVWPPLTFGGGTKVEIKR ?
9.28

Repeat for the following binder: MAB2-IgG4 (antibody, V domains shown) VH: QLQLQESGPGLVKPSETLSLTCTVSGGSISSSKYYWGWIRQPPGKGLEWIGSIYYSGSTFYNPSLKSRVTISVDTSKNQFSLKLSSVTAADTAVYYCARDANYYGSAWAFDPWGQGTLVTVSS VL: EIVLTQSPATLSLSPGERATLSCRASQSVSSYLAWYQQKPGQAPRLLIYDASNRATGIPARFSGSGSGTDFTLTISSLEPEDFAVYYCQQHFNLPTFGGGTKVEIKR
9.34

Further cases:
Consider the binder MAB5-IgG4 (antibody, V domains shown) VH: QLQLQESGPGLVKPSETLSLTCTVSGGSISSTSHYWGWIRQPPGKGLEWIGSIYYSGSTFYNPSLKGRVTISVDTSKNQFSLKLSSVTAADTAVYYCARDANYYGSAWAFDPWGQGTLVTVSS VL: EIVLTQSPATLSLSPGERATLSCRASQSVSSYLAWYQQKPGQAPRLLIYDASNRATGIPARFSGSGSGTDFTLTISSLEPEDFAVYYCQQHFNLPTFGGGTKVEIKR and give its measured pKd.
9.71

Lookup MAB13-IgG4 (antibody, V domains shown) VH: QVQLVQSGAEVKKPGASVKVSCKASGYTFGNYYMHWVRQAPGQGLEWMGIINPSLGLTSYAQKFQGRVTMTRDTSTSTVYMELSSLRSEDTAVYYCARGGRTTWIGAFDIWGQGTMVTVSS VL: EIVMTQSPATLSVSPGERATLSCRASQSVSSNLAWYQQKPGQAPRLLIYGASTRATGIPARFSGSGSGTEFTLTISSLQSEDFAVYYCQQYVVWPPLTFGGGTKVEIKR
8.84

Also MAB1-IgG4 (antibody, V domains shown) VH: QLQLQESGPGLVKPSETLSLTCTVSGGSITSSSYYWGWIRQPPGKGLEWIGSIYYSGATFYNPSLKSRVTISVDTSKNQFSLKLSSVTAADTAVYYCARDANYYGSAWAFDPWGQGTLVTVSS VL: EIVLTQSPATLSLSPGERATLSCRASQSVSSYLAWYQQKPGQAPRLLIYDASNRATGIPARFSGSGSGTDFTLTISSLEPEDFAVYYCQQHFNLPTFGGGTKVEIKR ?
9.28

Every entry's value here was drawn from patent US20170340735A1.
